assayedSystem: human sigma 1 receptor (Homo sapiens)
Construct: [^3H](+)pentazocine (agonist) in Jurkat cells; host or cells: Jurkat cells
Sequence (Q99720 whole entry): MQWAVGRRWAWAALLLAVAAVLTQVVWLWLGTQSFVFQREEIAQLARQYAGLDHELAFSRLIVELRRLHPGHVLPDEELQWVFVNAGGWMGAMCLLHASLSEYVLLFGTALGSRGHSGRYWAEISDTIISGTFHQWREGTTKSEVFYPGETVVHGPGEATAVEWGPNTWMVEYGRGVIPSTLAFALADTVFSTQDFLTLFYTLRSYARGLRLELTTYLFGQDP
testDescription: radioligand binding, human sigma 1 receptor ([3H](+)pentazocine, Jurkat cells)
measurementName: pIC50
Numbers only, as −log10 of the molar value.

IN: Which pIC50 value belongs to O=C(O)C(=O)O.c1ccc(-c2ccc(OCCCCCN3CCCCCC3)cc2)cc1 [Compound E153] ?
OUT: 8.62

###

assayedSystem: human sigma 1 receptor (Homo sapiens)
Construct: [^3H](+)pentazocine (agonist) in Jurkat cells
testDescription: radioligand binding, human sigma 1 receptor ([3H](+)pentazocine, Jurkat cells)
measurementName: pKi
Give bare numbers, as −log10 of the molar value.

IN: Which pKi value belongs to `O=C(O)C(=O)O.c1ccc(-c2ccc(OCCCCCN3CCCCCC3)cc2)cc1` ?
OUT: 8.92

###

testDescription: in vivo
conditionInfo: mouse
measurementName: half-life
Provide the measurement as a number trailed by its unit.

IN: Which half-life value belongs to `O=C(O)C(=O)O.c1ccc(-c2ccc(OCCCCCN3CCCCCC3)cc2)cc1` ?
OUT: 41.6 min

###

testDescription: in vivo
conditionInfo: mouse, ip, 15 mg/kg
measurementName: Kp
Numbers only.

IN: Which Kp value belongs to `O=C(O)C(=O)O.c1ccc(-c2ccc(OCCCCCN3CCCCCC3)cc2)cc1` ?
OUT: 14.7
